readout.label: melting point

Below are worked cases with known answers.
INSERT INTO results (compound, result) VALUES
  ('COc1cc(OC)cc(N2CCC(N)C2=O)c1 (stereo not drawn)', '88 to 90 °C'),
  ('CCOC(=O)COc1cccc(Br)c1', '40 to 42 °C');

Now, please, on to the next compound.
Name the reported melting point value associated with the compound COc1cc(CO)c([N+](=O)[O-])cc1OCC(F)F 107 to 109 °C

====

readout.label: melting point

Example molecules with recorded melting point:
INSERT INTO measurements (molecule, result) VALUES
  ('O=C(O)CNC(=O)NCc1cccc([N+](=O)[O-])c1', '153 to 155 °C'),
  ('N#Cc1cc(Cl)ccc1OC1CCOC1 (stereo unspecified)', '128 to 130 °C'),
  ('Cc1sc2nc(Cn3cnc([N+](=O)[O-])c3)nc(Cl)c2c1C', '185 to 187 °C'),
  ('CC1CCc2c(sc(N)c2C#N)C1 (stereo unspecified)', '145 to 147 °C'),
  ('Cc1nnc(-c2cccc(N)c2)o1', '136 to 138 °C'),
  ('Nc1ccc2c(c1)CCC(=O)N2Cc1ccc(Cl)cc1', '142 to 144 °C');

Now look at this entry.
Item O=C1CC=NN1c1ccc(F)cc1 has what recorded melting point? 121 to 123 °C
